All figures here come from PubChem BioAssay (NCATS).

Entries and their measured activity, percent of control follow.
test_name: qHTS profiling for inhibitors of Plasmodium falciparum (DD2) proliferation (AID 743323)
condition_label: lower = more inhibition; at 28.7 µM (top of the series) unless noted
Only the number, expressed in %, is required.

Cc1cc2c(cc1C1(c3ccc(C(=O)O)cn3)CC1)C(C)(C)CCC2(C)C | 97.2

Problem: # input compound: `COc1ccc(CCN(C)CCCOc2ccc(S(=O)(=O)c3[nH]c4ccccc4c3C(C)C)cc2)cc1OC` ; wanted: its activity, percent of control
Result: 1.03

Problem: # input compound: `COC(=O)Nc1ccc(-c2nc(N3CCOCC3)c3cnn(C4CCN(C(=O)OC)CC4)c3n2)cc1` ; wanted: its activity, percent of control
Result: 7.64

Problem: # input compound: `NC(=O)c1ccc(N(C(N)=O)c2c(F)cccc2F)nc1-c1ccc(F)cc1F` ; wanted: its activity, percent of control
Result: 83.3
